# Test system: DU-145 prostate
# assay-notes: NCI tumour cell line growth inhibition, 48 h
endpoint: TGI

Study these solved cases before continuing.
[[record]]
molecule = "N#C/C(=C\\N1CCNC1=S)C(=O)c1ccc2ccccc2c1"
result = "> 100 µM"

[[record]]
molecule = "O=C(CCNC(=O)OCc1ccccc1)OCCCNC(=O)OCc1ccccc1"
result = "> 100 µM"

[[record]]
molecule = "N[C@H]1CCc2c1nc1c(c2-c2ccccc2)CC[C@@H]1N"
result = "> 100 µM"

[[record]]
molecule = "COc1ccc(CNCCCN2C(=O)c3ccc4c5c(ccc(c35)C2=O)C(=O)N(CCCNCCCCNCCCN)C4=O)c(OC)c1OC"
result = "3.44 µM"

[[record]]
molecule = "C/C(=N/NC(=S)Nc1cccc(Cl)c1)c1cccc(/C(C)=N\\NC(=S)Nc2cccc(Cl)c2)n1"
result = "> 73.1 µM"

[[record]]
molecule = "COc1ccc(S(=O)(=O)N2CCCCC2)cc1NC(=O)c1[nH]c(C)c2c1CCCCC2=O"
result = "> 100 µM"

[[record]]
molecule = "CCCCCCCCCCCCCCCCCCNc1ccn(C2OC(COP(=O)(O)OCCCCCCCCCCCCCCCC)C(O)C2O)c(=O)n1 (stereo not given)"
result = "> 100 µM"

[[record]]
molecule = "CC(=O)OC1CC(C)c2c1ncnc2N1CCN(C(=O)OC(C)(C)C)CC1 (stereo not given)"
result = "86.9 µM"


Query `O=[N+]([O-])/C=C/c1cccc(F)c1` yields TGI of 21.6 µM

TGI reported for this molecule `CN1CCN(c2ccc(NC3=C(Cl)C(=O)c4ncccc4C3=O)cc2C(F)(F)F)CC1` : 3.71 µM

Lab note: measured TGI of `CO/N=C(\COc1ccc2c(=O)cc(-c3ccccc3)oc2c1)c1ccc(OC)cc1` was > 100 µM

Form field TGI, entry `CCCCCn1ncc(-c2c(O)c(O)cc3c(O)c(-c4c(C)cc5c(-c6cnn(CCCCC)n6)c(O)c(O)cc5c4O)c(C)cc23)n1` : 6.02 µM

The molecule identified as COC(=O)C1=C(O)C(C(=O)OC)[C@@]2(O)[C@@H](C(=O)OC)C(c3ccc(OC(=O)/C(=C/c4ccccc4)c4ccccc4)cc3)C[C@@H]1[C@@H]2C(=O)OC (stereo not given in full) registered its TGI at > 100 µM

The molecule identified as `NC(=O)c1nnc2cc(F)c(F)cc2c1N` registered its TGI at > 100 µM

In plain terms, CCOC(=O)C1C(=O)CC(C)(O)C(C(=O)OCC)C1c1ccc(O)c(OC)c1 (stereo not given) has a documented TGI of > 100 µM

The value of TGI measured for the molecule `CCN(CCc1ccc(F)cc1)c1ccc(CO)c(Cl)c1` turned out to be 29.2 µM

Sample O=C(Nc1ccccc1)N1CC(CN2CCN(c3ccccc3)CC2)OC1=O (stereo not given) ; TGI observed: > 100 µM

For reference, reported TGI for Cc1ccc(NCCN(C)CC(C)O)c2c(=O)c3ccc(Cl)cc3sc12 (stereo not given) stands at > 100 µM

The reported TGI of the molecule COc1cc2c(C#N)n3c(c2cc1OC)C(=O)C(c1ccccc1)Oc1ccccc1-3 (stereo not given) was > 100 µM

Value of TGI reported for the molecule `C[C@@H]1O[C@@H]2OCC[C@@H]2C2=C1C(=O)c1ccccc1C2=O` is 21 µM
